target: ALDH1A3 (Homo sapiens, UniProt P47895); construct: expressed in transfected cells; host or cells: MDA-MB-231; test: Aldefluor test in MDA-MB-231 cells overexpressing ALDH1A3; type: cell-based; conditions: Aldefluor test, MDA-MB-231 cells overexpressing ALDH1A3
Sequence (P47895 whole entry): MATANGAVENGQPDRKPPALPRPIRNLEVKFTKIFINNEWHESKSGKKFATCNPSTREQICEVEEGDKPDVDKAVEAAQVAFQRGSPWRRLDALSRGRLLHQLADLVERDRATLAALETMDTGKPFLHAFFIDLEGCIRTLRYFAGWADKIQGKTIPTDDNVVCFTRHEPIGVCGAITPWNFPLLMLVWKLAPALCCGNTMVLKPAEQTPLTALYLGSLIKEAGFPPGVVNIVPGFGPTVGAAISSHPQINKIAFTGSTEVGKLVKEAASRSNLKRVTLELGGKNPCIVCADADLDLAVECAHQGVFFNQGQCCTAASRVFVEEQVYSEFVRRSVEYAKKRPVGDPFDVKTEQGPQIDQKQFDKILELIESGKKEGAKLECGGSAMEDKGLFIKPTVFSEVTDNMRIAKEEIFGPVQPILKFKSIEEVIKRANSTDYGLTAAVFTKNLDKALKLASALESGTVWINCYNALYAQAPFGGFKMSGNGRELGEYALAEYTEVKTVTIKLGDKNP
pIC50: −log10 of the molar value.
Here the recorded pIC50 is given for each entry.
readout: pIC50

structure: CC(=O)c1ccc(-c2cc(-c3ccc(C(C)=O)cc3)c3nc(-c4ccccc4)cn3c2)cc1
readout: pIC50
assay.result: 8.72
--
structure: CC(=O)c1ccc(-c2cc(-c3ccc(C#N)cc3)cn3cc(-c4ccccc4)nc23)cc1
readout: pIC50
assay.result: 8.03
